From: the supplement of paper PMC12042874

test: amyloid nucleation score (Sup35N fusion, yeast selection) (log enrichment); library NNK3; higher = more nucleation; inactive = no reads after selection;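 further: zero at mode of non-aggregating sequences after 7 days selection at 30°C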
Measured metric: amyloid nucleation score

         sequence_input           measured_metric   reading
0  IGEILIVFALTRNTVVGYGF  amyloid nucleation score  inactive
1  GTGRSECNCMQGTHGLGICS  amyloid nucleation score    -0.184
2       FWFFYNICRMLKSVT  amyloid nucleation score  inactive
3              LSHSRSNL  amyloid nucleation score  inactive
4  WESLIGLWASAGMIWVHWGS  amyloid nucleation score  inactive
5              GYNVKGNP  amyloid nucleation score  inactive

Continue with the next sequence.
Request: Entry under review: NHVTVYVI . Reported amyloid nucleation score?
Result: 0.555

====

assay: amyloid nucleation score (Sup35N fusion, yeast selection) (log enrichment); library NNK3; higher = more nucleation; inactive = no reads after selection
Measured metric: amyloid nucleation score

              substance           measured_metric   reading
0  GKSRFRLRDAWWRLVTQQRR  amyloid nucleation score  inactive
1  SNTYCVPYRKGEELVYCGSW  amyloid nucleation score  inactive
2                YFVYEG  amyloid nucleation score  inactive
3   NAVRLVGSPAVVVSTMGHN  amyloid nucleation score  inactive
4  MCSIIRCRFNMFCLMYVNSV  amyloid nucleation score     0.584

Request: Entry under review: SYGSLM . Reported amyloid nucleation score?
Result: 0.198

Request: Record: RWMLSDGFIMKRRTSFFNDM
Result: inactive

Request: Record: IRVTRIRAKVTLTTNVMWVP
Result: 0.463

Request: Record: CTVLKYFLRYRRSHDL
Result: inactive

====

assay: amyloid nucleation score (Sup35N fusion, yeast selection) (log enrichment); library NNK2; higher = more nucleation; inactive = no reads after selection
Response key: T means amyloid nucleation score >= 0.3; F means amyloid nucleation score < 0.3.

>>> print(df.to_string())
              substance  category
0  RRVVWSWNCLLSDMPRSHVL         T

Request: amyloid nucleation score >= 0.3 for QRDHWNAALCKVLLLSGLLR ?
Result: F

Request: Record: LYGHSVNMVV
Result: F

====

assay: amyloid nucleation score (Sup35N fusion, yeast selection) (log enrichment); library NNK2; higher = more nucleation; inactive = no reads after selection
Response key: true (1) means amyloid nucleation score >= 0.1; false (0) means amyloid nucleation score < 0.1.

>>> print(df.to_string())
              substance   category
0  AVPAVRVNGLHIRNCGYTGP   true (1)
1        NTNRVVWVVLAMKI  false (0)
2  SFDVWAALNENLPHISYFDQ  false (0)
3  WPYGVGLINGWSTMVSYKVL   true (1)
4  RFPLGCKMSVTGPFHMTHHA   true (1)
5  KQPLYCHDWFHLCGSDSTSF   true (1)

Request: amyloid nucleation score >= 0.1 for SELLGLSIKAIYICCMSQME ?
Result: false (0)

Request: Record: FLSYYFGPFRELVF
Result: false (0)

Request: Record: ILCYMVGSRIMCVEHSGC
Result: true (1)

Request: Record: NNIVIYDDLYNSMMALLWS
Result: false (0)

Request: Record: GDQPRPKMLLSWHRFLLQQS
Result: true (1)

Request: Record: SAACQCLDFWCSGLGQSQGL
Result: true (1)

Request: Record: FTVLEHRMFILSYVLRTRVW
Result: true (1)

Request: Record: GIIAMHSLPRQIGIVLFIAR
Result: true (1)

Request: Record: FVSVIILCFCVIQPMNLNSV
Result: true (1)

Request: Record: ERSVDYSLTL
Result: false (0)

Request: Record: RWICWAMCSYLRRRKKP
Result: true (1)
